tested on: gluten-reactive T cells; assay: 96-well plate whole blood cytokine release, IFNγ by MAGPIX multiplex bead assay; type: cell-based, human; settings: Subject 8; after oral gluten challenge; Max. 47 pg/mL
Non-standard residues stand in square brackets, D forms with d. pGlu = O=C1CC[C@@H](C(=O)O)N1
OBSERVED PROPERTY: Percent of maximal response to individual gluten peptides, IFNg

# SUBSTANCE, TESTED ON, OBSERVED
rows = [
    ("(pE)LQPFPQPELPYPQPQ-amide ([pGlu]LQPFPQPELPYPQPQ-NH2; SMILES CC(C)C[C@H](NC(=O)[C@@H]1CCC(=O)N1)C(=O)N[C@@H](CCC(N)=O)C(=O)N1CCC[C@H]1C(=O)N[C@@H](Cc1ccccc1)C(=O)N1CCC[C@H]1C(=O)N[C@@H](CCC(N)=O)C(=O)N1CCC[C@H]1C(=O)N[C@@H](CCC(=O)O)C(=O)N[C@@H](CC(C)C)C(=O)N1CCC[C@H]1C(=O)N[C@@H](Cc1ccc(O)cc1)C(=O)N1CCC[C@H]1C(=O)N[C@@H](CCC(N)=O)C(=O)N1CCC[C@H]1C(=O)N[C@@H](CCC(N)=O)C(N)=O) [Peptide 1]", "gluten-reactive T cells", "6 % of max"),
    ("(pE)QPFPQPELPYPYPQ-amide ([pGlu]QPFPQPELPYPYPQ-NH2; SMILES CC(C)C[C@H](NC(=O)[C@H](CCC(=O)O)NC(=O)[C@@H]1CCCN1C(=O)[C@H](CCC(N)=O)NC(=O)[C@@H]1CCCN1C(=O)[C@H](Cc1ccccc1)NC(=O)[C@@H]1CCCN1C(=O)[C@H](CCC(N)=O)NC(=O)[C@@H]1CCC(=O)N1)C(=O)N1CCC[C@H]1C(=O)N[C@@H](Cc1ccc(O)cc1)C(=O)N1CCC[C@H]1C(=O)N[C@@H](Cc1ccc(O)cc1)C(=O)N1CCC[C@H]1C(=O)N[C@@H](CCC(N)=O)C(N)=O) [Peptide 16]", "gluten-reactive T cells", "0 % of max"),
    ("(pE)SGEGSFQPSQENPQ-amide ([pGlu]SGEGSFQPSQENPQ-NH2; SMILES NC(=O)CC[C@H](NC(=O)[C@@H]1CCCN1C(=O)[C@H](CC(N)=O)NC(=O)[C@H](CCC(=O)O)NC(=O)[C@H](CCC(N)=O)NC(=O)[C@H](CO)NC(=O)[C@@H]1CCCN1C(=O)[C@H](CCC(N)=O)NC(=O)[C@H](Cc1ccccc1)NC(=O)[C@H](CO)NC(=O)CNC(=O)[C@H](CCC(=O)O)NC(=O)CNC(=O)[C@H](CO)NC(=O)[C@@H]1CCC(=O)N1)C(N)=O) [Peptide 9]", "gluten-reactive T cells", "0 % of max"),
    ("(pE)PEQPEQPFPEQPQQ-amide ([pGlu]PEQPEQPFPEQPQQ-NH2; SMILES NC(=O)CC[C@H](NC(=O)[C@H](CCC(N)=O)NC(=O)[C@@H]1CCCN1C(=O)[C@H](CCC(N)=O)NC(=O)[C@H](CCC(=O)O)NC(=O)[C@@H]1CCCN1C(=O)[C@H](Cc1ccccc1)NC(=O)[C@@H]1CCCN1C(=O)[C@H](CCC(N)=O)NC(=O)[C@H](CCC(=O)O)NC(=O)[C@@H]1CCCN1C(=O)[C@H](CCC(N)=O)NC(=O)[C@H](CCC(=O)O)NC(=O)[C@@H]1CCCN1C(=O)[C@@H]1CCC(=O)N1)C(N)=O) [Peptide 11]", "gluten-reactive T cells", "0 % of max"),
    ("(pE)PQPYPEQPQPFPQQ-amide ([pGlu]PQPYPEQPQPFPQQ-NH2; SMILES NC(=O)CC[C@H](NC(=O)[C@H](CCC(N)=O)NC(=O)[C@@H]1CCCN1C(=O)[C@H](Cc1ccccc1)NC(=O)[C@@H]1CCCN1C(=O)[C@H](CCC(N)=O)NC(=O)[C@@H]1CCCN1C(=O)[C@H](CCC(N)=O)NC(=O)[C@H](CCC(=O)O)NC(=O)[C@@H]1CCCN1C(=O)[C@H](Cc1ccc(O)cc1)NC(=O)[C@@H]1CCCN1C(=O)[C@H](CCC(N)=O)NC(=O)[C@@H]1CCCN1C(=O)[C@@H]1CCC(=O)N1)C(N)=O) [Peptide 8]", "gluten-reactive T cells", "42 % of max"),
]
